Numbers sourced from paper PMC7155171.

Below, each entry is listed alongside its reported inhibition at 2 µM.
Experiment: HepG2 cytotoxicity screening (CellTiter-Glo)
Details: human, uninfected HepG2-A16-CD81 (EGFP) hepatocytes
Only the number, expressed in %, is required.

As a guide, the following entries are already answered.
> print(dat)
                                   compound  units.of.measure  value.reported
1  Cc1cc(NC(=O)c2ccc(CN3CC[C@H](O)C3)cc2)ccc1F                 %            7.88
2      CCCc1cc(=O)[nH]c(-n2nc(C3CC3)cc2N)n1                 %           -26.2
3                   CN(CCc1ccncc1)CCc1nccs1                 %            2.05
4  Fc1ccc(CN2CCCC(c3cc4ncccc4[nH]3)C2)cc1 (stereo not drawn)                 %              12
5  CC(C)(C)n1ncc2c1CCCC2NCc1ccc2c(c1)CCO2 (stereo not drawn)                 %            2.05

# inhibition at 2 µM of O=C1N(CC2CC2)CCCC1(O)CN1CCc2[nH]ncc2C1 (stereo not drawn) = 2.23

# inhibition at 2 µM of Cc1ncsc1C(=O)NC1CCN(Cc2ccc(C(F)(F)F)cc2)CC1 = 9.14

# inhibition at 2 µM of CSc1ccc(CN2C[C@@H]3CC[C@@](O)(c4ccc(C)cn4)[C@@H]3C2)cc1 = 2.45

# inhibition at 2 µM of CCOc1ccccc1CNC(=O)NCC(c1cnn(C)c1)N(C)C (stereo not drawn) = 13.9

====

Below, each entry is listed alongside its reported Emax.
Target: recombinant firefly luciferase (Photinus pyralis, UniProt P08659)
Sequence (P08659 whole entry): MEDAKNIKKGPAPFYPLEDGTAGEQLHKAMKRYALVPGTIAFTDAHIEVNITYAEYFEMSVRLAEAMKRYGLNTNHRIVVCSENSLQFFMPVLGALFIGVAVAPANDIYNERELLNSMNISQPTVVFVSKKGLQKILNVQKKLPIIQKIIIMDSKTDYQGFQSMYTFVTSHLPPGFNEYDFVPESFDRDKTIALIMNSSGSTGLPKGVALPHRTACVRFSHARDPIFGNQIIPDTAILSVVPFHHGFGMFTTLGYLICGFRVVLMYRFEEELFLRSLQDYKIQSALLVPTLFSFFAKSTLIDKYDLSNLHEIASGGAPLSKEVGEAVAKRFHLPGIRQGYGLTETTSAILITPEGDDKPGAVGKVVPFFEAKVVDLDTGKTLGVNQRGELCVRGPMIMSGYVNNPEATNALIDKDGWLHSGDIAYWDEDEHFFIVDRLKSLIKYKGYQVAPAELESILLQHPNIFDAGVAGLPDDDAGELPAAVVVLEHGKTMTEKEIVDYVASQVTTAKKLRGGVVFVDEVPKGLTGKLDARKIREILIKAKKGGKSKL
Assay: biochemical
Settings: dose response, maximum inhibition; read-out: rLuc inhibition dose response: Maximum inhibition (%)
Record the result as number plus unit.

As a guide, the following entries are already answered.
> print(dat)
                                   compound  experimental.readout  value.reported
1  O=S(=O)(c1ccc(Cl)s1)N1CCN(Cc2nc(-c3ccco3)cs2)CC1                  Emax           13.6%
2  COC(=O)c1sc(NCc2ccc(N3CCC(O)CC3)c(F)c2)nc1Cl                  Emax           26.9%
3  Cc1nc(NC(=O)c2c(-n3cnnn3)sc3c2CCCC3)sc1C                  Emax             15%
4  Clc1ccc(-c2ccc(C3CNCCO3)nc2)cc1 (stereo not shown)                  Emax           95.9%

# Emax of Cn1cc(NS(=O)(=O)c2ccc(OC(F)(F)F)cc2)ccc1=O = 16.1%

# Emax of COc1cccc(CN2CCc3nc(C(=O)NCC(C)C)sc3CC2)c1 = 32%

# Emax of CN1CCOC(C(=O)Nc2ccc3c(c2)nc(C(C)(C)C)n3C)C1 (stereo not shown) = 88.4%

# Emax of CC(=O)c1c(F)cccc1N1CCC(Cc2cccnc2)CC1 = 7.02%

# Emax of Cc1cc(NC(=O)C(C)C)n(-c2nc(C)c(C)c(=O)[nH]2)n1 = 12.4%

# Emax of Cn1cncc1CN1CCCC1c1cncc(Oc2ccc(Cl)cc2)n1 (stereo not shown) = 3.17%

# Emax of Cc1cc(NC(=O)c2ccc(CN3CC[C@H](O)C3)cc2)ccc1F = 100%

# Emax of Cc1cc(-c2cnc(NCc3cccnc3)nc2C(C)(C)C)on1 = 6.14%

# Emax of CC(NC(=O)c1cc(-c2cccc(Cl)c2)no1)C(=O)N1CCCC1 (stereo not shown) = 37.2%

# Emax of CCc1ccc(-c2ncc3c(n2)N(C)CCN(CCN(C)C)C3=O)cc1 = 7.09%

# Emax of CC(C)Cc1ccc(S(=O)(=O)Nc2ccc(=O)n(C)c2)cc1 = 7.28%

# Emax of COc1ccc(-c2ccc(C3CNCCO3)nc2)cc1 (stereo not shown) = 89.6%

# Emax of Cc1cnc(NC(=O)c2csc(NC3CCCC3)n2)s1 = 65.8%

# Emax of Cc1noc(NC(=O)c2ccc(Br)s2)n1 = -1.54%

# Emax of Cc1ccoc1C(=O)NC1CCN(Cc2csc3c(F)cccc23)CC1 = 3.24%

====

System: P. falciparum Dd2 (PfLuc) line expressing firefly luciferase, asexual blood stage
Assay: microbe, parasite or virus in culture
Type: cell-based, Plasmodium falciparum
Details: Plasmodium falciparum, DD2, read-out: CDD P. falciparum Luciferase ABS 11-pt Reconfirmation Dose Response (48hr): IC50 (μM); 11-pt dose response, 48hr
experimental.readout: IC50 (µM)
Only the number, expressed in µM, is required.

As a guide, the following entries are already answered.
> print(dat)
                                   compound  value.reported
1  Nc1cc(-c2c[nH]nc2C2CCCN2CCCc2ccccc2)ccn1 (centres unmarked) [DDD01057437]            3.06
2  OCC1CCCCN1c1ccc(-c2nc(-c3ccccc3F)no2)cn1 (centres unmarked) [DDD01257937]            1.36

# IC50 of CN(C)[C@@H]1CCN(c2ncc(F)cn2)[C@H]1Cc1ccccc1 [DDD01033375] = 5.55

# IC50 of O=C(CN1CCCC(c2ccn[nH]2)C1)Nc1nc2c(s1)CCCC2 (centres unmarked) [DDD01079490] = 0.452

====

Tested on: HepG2-A16-CD81 hepatocytes
Experiment: HepG2 cytotoxicity screening (CellTiter-Glo)
Conditions: 12pt dose response, maximum inhibition
Label Yes for high-side HepG2 cytotoxicity 12pt dose response: Maximum inhibition (%) (at or above 10%) and No for low-side HepG2 cytotoxicity 12pt dose response: Maximum inhibition (%) (below it).

Solved cases (6 shown):
> print(dat)
                                   molecule             measured.target  class.label
1  Cc1ccc(N(CC(=O)c2ccc(Br)cc2)C2=NCCCCC2)cc1 [UCSD-0795313]  HepG2-A16-CD81 hepatocytes          Yes
2  CC(C)(C)NC(=O)N1CCC(Oc2ccc(C(F)(F)F)cn2)CC1 [UCSD-0787817]  HepG2-A16-CD81 hepatocytes          Yes
3  CC(Nc1ncnc2c1CCNC2)c1ccc2c(c1)CCCC2 (stereo not drawn) [UCSD-0833335]  HepG2-A16-CD81 hepatocytes          Yes
4  CC(=O)N1CCN(Cc2cccc3c2sc2ccccc23)CC(O)C1 (stereo not drawn) [UCSD-0830872]  HepG2-A16-CD81 hepatocytes          Yes
5  COc1cc(CNCc2ccnc(N3CCCCC3)c2)cc(OC)c1 [UCSD-0841255]  HepG2-A16-CD81 hepatocytes          Yes
6  CC(C)c1n[nH]c(C(=O)Nc2ccccn2)c1Br [UCSD-0842403]  HepG2-A16-CD81 hepatocytes          Yes

[in] Reported HepG2 cytotoxicity 12pt dose response: Maximum inhibition (%) reaches at least 10% for CN1CCCC(CCC(=O)N2CCc3sc(C(=O)N(C)C)cc3C2)C1 (stereo not drawn) [UCSD-0833754] ?
[out] No

[in] Reported HepG2 cytotoxicity 12pt dose response: Maximum inhibition (%) reaches at least 10% for CC(C)CC(=O)NCc1cccc(OCCN(C)C2CCOCC2)c1 [UCSD-0810838] ?
[out] No

====

Tested on: P. falciparum Dd2
Assay: SYBR green I asexual blood stage proliferation assay (96 h)
Assay type: cell-based, Plasmodium falciparum
Settings: Plasmodium falciparum, DD2; 11-pt dose response, 96hr; read-out: P. falciparum Sybr Green I ABS 11-pt Reconfirmation Dose Response (96hr): Maximum inhibition (%)
Below, each entry is listed alongside its reported Emax.
Only the number, expressed in %, is required.

As a guide, the following entries are already answered.
> print(dat)
                                   compound  value.reported
1  Clc1cccc2c3c([nH]c12)CCN(Cc1cc2n(n1)CCCNC2)C3 [DDD01255494]              91
2  COc1cc(C(=O)NCC2(N(C)C)CCN(C)CC2)c2ccccc2n1 [DDD01057375]            63.6

# Emax of CS(=O)(=O)CCCNC1(c2cccc(Cl)c2)CCCC1 [DDD01078792] = 73.6

# Emax of Cc1cc(CN2CCc3nc(-c4ccncc4)nc(O)c3CC2)c(C)s1 [DDD01058881] = 78.2

# Emax of Cc1cccc(CN2CCC(Cc3ccccc3F)CC2)n1 [DDD01246731] = 92.8

# Emax of CCN1CCN(c2ccc(F)cc2C(C)NCc2cscn2)CC1 (centres unmarked) [DDD01070576] = 78.2

# Emax of CCn1ccnc1CN1CCCC(CO)(Cc2cccc(Cl)c2)C1 (centres unmarked) [DDD01258327] = 58.2

# Emax of CN1CCN(c2ccccc2NC(=O)NCCc2ccccc2)CC1 [DDD01076697] = 52.5
